From: patent US20250262222A1

System: pERK1/2(THR202/TYR204) level in AsPC-1 cell line
Assay: KRAS G12D pERK assay
Format: cell-based
Conditions: Homo sapiens, ASPC1, 2 h, AsPC-1 cells, 2 h compound treatment, HTRF
Recorded IC50 by entry

- molecule: "COC(=O)N1CC(C)(COc2nc3c4c(nc(-c5cc(N)cc(C)c5C(F)(F)F)c(F)c4n2)OCC[C@@H]2[C@@H]4CC[C@H](CN32)N4)C1 [Example 43]"
  IC50: "584 nM"
- molecule: "Cc1cc(N)cc(-c2nc3c4c(nc(OCC56COC(CF)(C5)C6)nc4c2F)N2C[C@H]4CC[C@H](N4)[C@H]2CCO3)c1C(F)(F)F [Example 49]"
  IC50: "172 nM"
- molecule: "CC1(COc2nc3c4c(nc(-c5cc(N)cc(Cl)c5C(F)(F)F)c(F)c4n2)OCC[C@@H]2[C@@H]4CC[C@H](CN32)N4)COC1 [Example 66]"
  IC50: "145 nM"
- molecule: "Nc1cc(Cl)c(C(F)(F)F)c(-c2nc3c4c(nc(OCC56COC(C(F)(F)F)(C5)C6)nc4c2F)N2C[C@H]4CC[C@H](N4)[C@H]2CCO3)c1 [Example 53]"
  IC50: "211 nM"
- molecule: "C[C@](O)(COc1nc2c3c(nc(-c4cc(N)cc(Cl)c4C(F)(F)F)c(F)c3n1)OCC[C@@H]1[C@@H]3CC[C@H](CN21)N3)C(F)(F)F [Example 44]"
  IC50: "2220 nM"
- molecule: "Nc1cc(Cl)c(C(F)(F)F)c(-c2nc3c4c(nc(OCC56COC(CF)(C5)C6)nc4c2F)N2C[C@H]4CC[C@H](N4)[C@H]2CCO3)c1 [Example 50]"
  IC50: "109 nM"

* * *

System: pERK1/2(THR202/TYR204) level in AsPC-1 cell line
Test: KRAS G12D pERK assay
Assay type: cell-based
Conditions: Homo sapiens, ASPC1, 2 h, AsPC-1 cells, 2 h compound treatment, HTRF
pIC50: −log10 of the molar value.
quantity: pIC50

- compound: "COCC12CC(COc3nc4c5c(nc(-c6cc(N)cc(Cl)c6C(F)(F)F)c(F)c5n3)OCC[C@@H]3[C@@H]5CC[C@H](CN43)N5)(CO1)C2"
  quantity: "pIC50"
  measured: 6.39
- compound: "Cc1cc(N)cc(-c2nc3c4c(nc(OCC56COC(C)(C5)C6)nc4c2F)N2C[C@H]4CC[C@H](N4)[C@H]2CCO3)c1C(F)(F)F"
  quantity: "pIC50"
  measured: 6.82
- compound: "Nc1cc(Cl)c(C(F)(F)F)c(-c2nc3c4c(nc(OCC56COC(C5)C6)nc4c2F)N2C[C@H]4CC[C@H](N4)C2CCO3)c1 (stereo partly drawn)"
  quantity: "pIC50"
  measured: 6.94
- compound: "Cc1cc(N)cc(-c2nc3c4c(nc(OCC56COCC(F)(C5)C6)nc4c2F)N2C[C@H]4CC[C@H](N4)[C@H]2CCO3)c1C(F)(F)F"
  quantity: "pIC50"
  measured: 6.70
- compound: "Cc1nc(N)cc(-c2nc3c4c(nc(OCC56COC(C5)C6)nc4c2F)N2CC4CCC(N4)[C@H]2CCO3)c1C(F)(F)F (stereo in doubt)"
  quantity: "pIC50"
  measured: 5.73
- compound: "Nc1cc(Cl)c(C(F)(F)F)c(-c2nc3c4c(nc(OCC5(C(F)F)CCOC5)nc4c2F)N2C[C@H]4CC[C@H](N4)[C@H]2CCO3)c1 (stereo partly drawn)"
  quantity: "pIC50"
  measured: 6.82
- compound: "CCc1cc(N)cc(-c2nc3c4c(nc(OCC56COC(C5)C6)nc4c2F)N2C[C@H]4CC[C@H](N4)[C@H]2CCO3)c1C(F)(F)F"
  quantity: "pIC50"
  measured: 6.26
- compound: "Cc1c(F)c(N)cc(-c2nc3c4c(nc(OCC5(C(F)F)COC5)nc4c2F)N2C[C@H]4CC[C@H](N4)[C@H]2CCO3)c1C(F)(F)F"
  quantity: "pIC50"
  measured: 6.79
- compound: "Nc1cc(Cl)c(C(F)(F)F)c(-c2nc3c4c(nc(OCC5(C(F)F)COC5)nc4c2F)N2C[C@H]4CC[C@H](N4)[C@H]2CCO3)c1"
  quantity: "pIC50"
  measured: 6.93
- compound: "CC12COCC(COc3nc4c5c(nc(-c6cc(N)cc(Cl)c6C(F)(F)F)c(F)c5n3)OCC[C@@H]3[C@@H]5CC[C@H](CN43)N5)(C1)C2"
  quantity: "pIC50"
  measured: 6.53
- compound: "C#Cc1c(F)ccc2cc(O)cc(-c3nc4c5c(nc(OC[C@@]67CCCN6C[C@H](F)C7)nc5c3F)N3CCOC[C@H]3CO4)c12"
  quantity: "pIC50"
  measured: 7.12
- compound: "CC12CC(COc3nc4c5c(nc(-c6cc(N)cc(Cl)c6C(F)(F)F)c(F)c5n3)OCC[C@@H]3[C@@H]5CC[C@H](CN43)N5)(CO1)C2"
  quantity: "pIC50"
  measured: 7.09

* * *

Recorded pIC50 by entry
System: pERK1/2(THR202/TYR204) level in AsPC-1 cell line
Assay: KRAS G12D pERK assay
Type: cell-based
Conditions: Homo sapiens, ASPC1, 2 h, AsPC-1 cells, 2 h compound treatment, HTRF
pIC50: −log10 of the molar value.

- chem.smiles: "Nc1cc(Cl)c(C(F)(F)F)c(-c2nc3c4c(nc(OCC56COCC(F)(C5)C6)nc4c2F)N2C[C@H]4CC[C@H](N4)[C@H]2CCO3)c1"
  pIC50: 7.01
- chem.smiles: "Cc1cc(N)cc(-c2nc3c4c(nc(OCC5(C(F)F)COC5)nc4c2F)N2C[C@H]4CC[C@H](N4)[C@H]2CCO3)c1C(F)(F)F"
  pIC50: 6.85
- chem.smiles: "CC12CCC(COc3nc4c5c(nc(-c6cc(N)cc(Cl)c6C(F)(F)F)c(F)c5n3)OCC[C@@H]3[C@@H]5CC[C@H](CN43)N5)(CO1)C2"
  pIC50: 6.97
- chem.smiles: "Nc1cc(Cl)c(C(F)(F)F)c(-c2nc3c4c(nc(OCC56COC(C(F)F)(C5)C6)nc4c2F)N2C[C@H]4CC[C@H](N4)[C@H]2CCO3)c1"
  pIC50: 7.21
